System: BIKE
Construct: gene BMP2K
test.settings: concentration: 1 μM, replicates: in singlicate; n = 1;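 further: KINOMEscan kinase panel screen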
readout.label: %Inh (%)
Answer with a number only, understood to be in %.

Known %Inh results, listed for orientation:
O=C(O)COc1ncnc2cc(-c3ccc4[nH]ncc4c3)sc12	0
Cn1cncc1-c1ccc2ncnc(Nc3ccc(OCc4ccccc4)cc3)c2c1	23
O=C1NC(=O)C(N2CCc3ccccc32)=C1c1ccccc1Cl	18
Cl.O=C(Nc1cccc(-c2nn3ncccc3c2-c2ccnc(Nc3cccnc3)n2)c1)c1c(F)cccc1F	31
O=S(=O)(c1ccc(-c2ccnc3[nH]ccc23)cc1)N1CCCC1	87

[ask] Which %Inh value belongs to COc1cccc(NC(=O)NC2CCN(c3ccnc(Nc4ccc(F)cc4)n3)C2)c1 (stereo not drawn) ?
[reply] 0

[ask] How about this molecule: `CS(=O)(=O)c1ccc(-c2c(-c3ncn[nH]3)sc(N3CCOCC3)c2C#N)cc1`
[reply] 6

[ask] How about this molecule: `CS(=O)(=O)c1ccc(-c2nc3n(c2-c2ccncc2)CCC3)cc1`
[reply] 3

[ask] How about this molecule: `COc1cc2ncnc(Nc3ccc4nc(-c5ccccc5)[nH]c4c3)c2cc1OC.Cl`
[reply] 14

====

Test system: VEGFR2
Construct: gene KDR
test.settings: concentration: 1 μM, replicates: in singlicate; n = 1
readout.label: %Inh (%)
Answer with a number only, understood to be in %.

Cc1ccccc1-n1cnc2c(N)ncnc21	0
Cc1cc(-c2ccc3c(c2)CC[C@@H](N[C@@H](C)c2ccccc2)C3)cnc1N.Cl	1
COc1ccccc1CNC(=O)c1cc(C(=O)c2ccccc2C)c[nH]1	0
Cl.Oc1ccc(-c2nc(-c3ccccc3)[nH]c2-c2ccncc2)cc1	0
O=C(Nc1ccc2c(c1)OCO2)NC1CCN(c2ccnc(Nc3ccc(F)cc3)n2)C1 (stereo not drawn)	0
CCCc1ccc(S(=O)(=O)NC2CCN(c3ccnc(Nc4ccc(F)cc4)n3)C2)cc1 (stereo not drawn)	0
NC(=O)c1nnc2ccccc2c1N	16
CN(C)CCN(C)C(=O)c1cc(-c2ccncc2)c(-c2ccc(Cl)c(O)c2)o1.Cl.Cl	0

Now examine the next entry.
[ask] Which %Inh value belongs to `Cc1cccc(-c2nc(Nc3ccncc3)c3ccccc3n2)n1` ?
[reply] 0

====

Test system: TAOK3
test.settings: concentration: 1 μM, replicates: in singlicate; n = 1
readout.label: %Inh (%)
Answer with a number only, understood to be in %.

COc1ccccc1-c1ccc2c(NC(=O)C3CC3)n[nH]c2n1	0

[ask] Which %Inh value belongs to `O=C(Nc1ccccc1)Nc1cccc(Oc2ccc3nccn3n2)c1` ?
[reply] 0

====

Test system: TRKA
Construct: gene NTRK1
test.settings: concentration: 1 μM, replicates: in singlicate; n = 1
Property: %Inh; scope: individual compounds
Just the number plus its unit, please.

Known %Inh results, listed for orientation:
CCn1c(-c2ccccn2)nc2cnccc21	0%
Cc1cccc(-c2nc(Nc3cccc(C(N)=O)c3)c3ccccc3n2)n1	0%
O=S(=O)(c1ccc(-c2ccnc3[nH]ccc23)cc1)N1CCCC1	69%
Cc1c(Cn2ccn3c(=O)cc(N4CCOCC4)nc23)cccc1C(F)(F)F	1%
COc1cccc(-c2cc(-c3c[nH]nc3-c3ccccn3)ccn2)c1	38%
COC(=O)c1c(-c2ccccc2)c2cc(C(=O)O)ccc2c(=O)n1Cc1ccccc1	0%
Cc1cc(-c2ccc3c(c2)CC[C@@H](N[C@@H](C)c2ccccc2)C3)cnc1N.Cl	82%
CC1=C(C(=O)Nc2cc3cn[nH]c3cc2F)C(c2ccc(C(F)(F)F)cc2)CC(=O)N1 (stereo not shown)	0%

[ask] Identify the measured %Inh of `C[C@@H]1CCCCN1c1cc(-c2ccc3c(N)n[nH]c3c2)nc(N)n1` for TRKA.
[reply] 0%

[ask] How about this compound: `Cc1cccc(-c2nc(Nc3ccc4[nH]ncc4c3)c3ccccc3n2)n1`
[reply] 52%

[ask] How about this compound: `Cn1ccc2ncnc(Oc3ccc(Nc4nc5ccccc5[nH]4)cc3)c21`
[reply] 0%

[ask] How about this compound: `Cc1cccc(-c2nc(-c3ccc(S(C)(=O)=O)cc3)sc2-c2ccnc(NCCc3ccccc3)c2)c1`
[reply] 0%
